Tested on: CCRIS mutagenicity, Ames/micronucleus/aberration tests
Test: CCRIS mutagenicity studies
Conditions: Test System: AMES SALMONELLA TYPHIMURIUM; Strain/Indicator: TA1535; Metabolic Activation: RAT, LIVER, S-9, AROCLOR 1254 (30%); Method: PREINCUBATION
From the text: The CCRIS database contains chemical records with carcinogenicity, mutagenicity, tumor promotion, and tumor inhibition test results. It was developed by the National Cancer Institute (NCI). Data are derived from studies cited in primary journals, current awareness tools, NCI reports, and other sources. Test results have been reviewed by experts in carcinogenesis and mutagenesis. CCRIS provides historical information from the years 1985 - 2011. It is no longer updated. […]
Active and inactive are the calls of the source. No rule for the calls is given here.
Outcome field: choose from active, inactive

Worked examples follow.
Compound | Class name
C=CC(=O)OC | inactive
CC1OC1C (stereo unspecified) | active
CCCCCCCCCCCC(=O)[O][Sn]([CH2]CCC)([CH2]CCC)[O]C(=O)CCCCCCCCCCC | inactive
CC1CCCC1 | inactive

Status in this test for COC(=O)C(c1ccccc1)C1CCCCN1 (stereo unspecified) ?
inactive

Status in this test for C=CC(=O)OCCCCCCOC(=O)C=C ?
inactive

Status in this test for Clc1cccc2ccccc12 ?
inactive

Status in this test for Cc1ccccc1C#N ?
inactive

Status in this test for CCCCOCCOCCSC#N ?
inactive

Status in this test for CCc1cc(C(N)=S)ccn1 ?
inactive

Status in this test for CC(=O)CC(C)C ?
inactive

Status in this test for CCCCCCC(=O)O ?
inactive

Status in this test for S=c1nc[nH]c2nc[nH]c12 ?
active

Status in this test for N#CC(O)c1ccccc1 (stereo unspecified) ?
inactive

Status in this test for CCCSC(=O)Cl ?
inactive

Status in this test for CCCCCCCCCCCCCCCCCC[N+](C)(C)Cc1ccccc1 ?
inactive

----------
Test system: CCRIS mutagenicity, Ames/micronucleus/aberration tests
Experiment: CCRIS mutagenicity studies
Conditions: Test System: AMES SALMONELLA TYPHIMURIUM; Strain/Indicator: TA100; Metabolic Activation: NONE; Method: STANDARD PLATE
Activity calls are given as the source filed them. The rule behind the calls is not given here.
Experimental readout: mutagenic call

Molecule | mutagenic call
Cc1cc(N=Nc2ccccc2C)ccc1N | inactive; negative
O=C(OCCBr)[C@@H](O)[C@H](O)C(=O)OCCBr | active; positive
Cc1ccccc1N=O | inactive; negative
Cc1cc(O)c2c(O)c3c(O)cccc3cc2c1 | inactive; negative
Clc1cccc2ccccc12 | inactive; negative
COP(=S)(NC(C)C)Oc1ccccc1C(=O)OC(C)C (stereo unspecified) | inactive; negative

Form field: mutagenic call recorded for CN(C)c1ccc(-c2ccc(N(C)C)cc2)cc1 with CCRIS mutagenicity, Ames/micronucleus/aberration tests (enter value)
inactive; negative

Form field: mutagenic call recorded for CCCCCCC(O)CCCCCCCCCCC(=O)O (stereo unspecified) with CCRIS mutagenicity, Ames/micronucleus/aberration tests (enter value)
inactive; negative

----------
System: CCRIS mutagenicity, Ames/micronucleus/aberration tests
Assay: CCRIS mutagenicity studies
Conditions: Test System: AMES SALMONELLA TYPHIMURIUM; Strain/Indicator: TA92; Metabolic Activation: NONE; Method: STANDARD PLATE
Calls of active or inactive are those of the source. No rule for the calls is given here.
Outcome field: choose from active, inactive

Worked examples follow.
Item smiles | Class name
CS(C)=O.[Cl-].[Cl-].[Pt+2].c1ccncc1 | inactive
CN(C)/N=N/c1nc[nH]c1C(N)=O | active
CN(C)N=Nc1ccc(C(=O)O)cc1 | active

Status in this test for CCn1cc(C(=O)O)c(=O)c2cc(F)c(N3CCNCC3)nc21 ?
active

Status in this test for [O]=[Cr](=[O])([OH])[O][Cr](=[O])(=[O])[OH] ?
active

Status in this test for O=S(O)O ?
inactive

Status in this test for N[C@@H](CS)C(=O)O ?
active

----------
System: CCRIS mutagenicity, Ames/micronucleus/aberration tests
Experiment: CCRIS mutagenicity studies
Details: Test System: AMES SALMONELLA TYPHIMURIUM; Strain/Indicator: TA98; Metabolic Activation: RAT, LIVER, S-9, AROCLOR 1254; Method: STANDARD PLATE
Activity calls are given as the source filed them. The rule behind the calls is not given here.
Experimental readout: mutagenic call

Reference set, count: 8
Molecule | Measurement
CCN(C(C)=O)c1ccc2c(c1)Cc1ccccc1-2 | active; positive
Oc1ccc2ccc3c4c(cc5ccc1c2c53)[C@@H](O)[C@H](O)C=C4 | active; positive
CC(C)=CC1C(C(=O)O)C1(C)C (configuration not stated) | inactive; negative
CN1CCC[C@H]1c1cccnc1 | inactive; negative
Nc1ccc([N+](=O)[O-])cc1[N+](=O)[O-] | active; positive
O=[N+]([O-])c1ccccc1OS(=O)(=O)c1cccc2cccnc12 | active; positive
O=C(/C=C/c1ccccc1)c1ccccc1 | inactive; negative
O=C1CCC2(O)c3c(ccc(O)c31)-c1ccc(O)c3c1C2C1OC1C3=O (configuration not stated) | active; positive

Form field: mutagenic call recorded for CCN(CC)N=O with CCRIS mutagenicity, Ames/micronucleus/aberration tests (enter value)
active; positive

Form field: mutagenic call recorded for O=[N+]([O-])c1cc(C(F)(F)F)cc([N+](=O)[O-])c1O with CCRIS mutagenicity, Ames/micronucleus/aberration tests (enter value)
inactive; negative

Form field: mutagenic call recorded for O=NN1C(C(=O)O)CSC1C(O)C(O)C(O)C(O)CO (configuration not stated) with CCRIS mutagenicity, Ames/micronucleus/aberration tests (enter value)
inactive; negative

Form field: mutagenic call recorded for NC(=O)[C@@H]1CCCN1C(=O)[C@H](Cc1cnc[nH]1)NC(=O)[C@@H]1CCC(=O)N1 with CCRIS mutagenicity, Ames/micronucleus/aberration tests (enter value)
inactive; negative

----------
Tested on: CCRIS mutagenicity, Ames/micronucleus/aberration tests
Experiment: CCRIS mutagenicity studies
Details: Test System: AMES SALMONELLA TYPHIMURIUM; Strain/Indicator: TA1537; Metabolic Activation: HAMSTER, LIVER, S-9, AROCLOR 1254; Method: STANDARD PLATE
Active and inactive are the calls of the source. The rule behind the calls is not given here.
Outcome field: choose from true for active, false for inactive

Worked examples follow.
Compound | Class name
CC/C=C\C/C=C\C/C=C\CCCCCCCC(=O)O | false
CCOC(=O)CBr | false
C=C1CC/C=C(/C)CC[C@@H]2[C@@H]1CC2(C)C | false
COc1cc(/C=C/C(=O)CC(=O)/C=C/c2ccc(O)c(OC)c2)ccc1O | false
Oc1c(Br)cc(Br)cc1Br | false
Nc1ncnc2c1ncn2[C@H]1CC[C@@H](CO)O1 | false
C/C=C/C=C/C=O | false
Nc1cccc2c(N)cccc12 | true

Status in this test for C=CC(=O)OCCOC(=O)C=C ?
false

Status in this test for COc1ccc(N)cc1 ?
false

Status in this test for Cc1c(C(=O)O)c(O)cc2c1C(=O)c1c(O)c([C@@H]3O[C@H](CO)[C@@H](O)[C@H](O)[C@H]3O)c(O)c(O)c1C2=O ?
false

Status in this test for O=c1[nH]cnc2c1ncn2[C@H]1CC[C@@H](CO)O1 ?
false

Status in this test for CCCCC(CC)COC(=O)c1ccc(N(C)N=O)cc1 (stereo not drawn) ?
false

----------
Tested on: CCRIS mutagenicity, Ames/micronucleus/aberration tests
Assay: CCRIS mutagenicity studies
Conditions: Test System: E. COLI; Strain/Indicator: WP2 UVRA; Metabolic Activation: NONE; Method: PREINCUBATION
Active and inactive are the calls of the source. How the calls were made is not given here.
Outcome field: choose from active, inactive

Status in this test for CCCCC(CC)CO (stereo not drawn) ?
inactive

Status in this test for CCCOC(C(=O)OC1CCN(C)CC1)(c1ccccc1)c1ccccc1 ?
inactive

Status in this test for O=C=Nc1ccc(Cc2ccc(N=C=O)cc2)cc1 ?
inactive

Status in this test for CCCCCCCOc1ccccc1NC(=O)OCCN1CCCCC1 ?
inactive

Status in this test for COC(=O)C1=C(C)NC(COC(N)=O)=C(C(=O)OC(C)C)C1c1cccc(Cl)c1Cl (stereo not drawn) ?
inactive

Status in this test for CC[n+]1c(-c2ccccc2)c2cc(N)ccc2c2ccc(N)cc21 ?
inactive

----------
Tested on: CCRIS mutagenicity, Ames/micronucleus/aberration tests
Test: CCRIS mutagenicity studies
Details: Test System: AMES SALMONELLA TYPHIMURIUM; Strain/Indicator: TA100; Metabolic Activation: NONE; Method: STANDARD PLATE
Activity calls are given as the source filed them. How the calls were made is not given here.
Outcome field: choose from TRUE = active, FALSE = inactive

Worked examples follow.
Item smiles | System | Class name
CCN(CC)c1ccc(N=Nc2c(Cl)cc([N+](=O)[O-])cc2Cl)cc1 | CCRIS mutagenicity, Ames/micronucleus/aberration tests | FALSE
ClCc1ccc2c3c(cccc13)-c1ccccc1-2 | CCRIS mutagenicity, Ames/micronucleus/aberration tests | TRUE
Nc1cccc(N)c1 | CCRIS mutagenicity, Ames/micronucleus/aberration tests | FALSE
O=[N+]([O-])c1ccc2ccc3cccc([N+](=O)[O-])c3c2c1 | CCRIS mutagenicity, Ames/micronucleus/aberration tests | TRUE
Oc1ccc2ccc3[nH]c4ccc5ccccc5c4c3c2c1 | CCRIS mutagenicity, Ames/micronucleus/aberration tests | TRUE

Consider now this further compound.
Status in this test for CCN(C(=O)CCCCl)c1snc2ccccc12 ?
FALSE

Source: PubChem BioAssay AID1259407
